# Test system: DU-145 prostate
# ASSAY OVERVIEW: NCI-60 one-dose screen, 48 h (100 = growth as untreated, 0 = no growth, -100 = all killed)
# RECORDED CONDITIONS: 10 µM unless noted
The panel holds about 83,000 compounds, 20% with a hit somewhere; the sample as a whole holds those more often.
Mark rule met for reported growth of 40% or greater; mark rule not met for anything smaller.

Kindly determine if growth recorded for CN1C(=O)/C(=C\C(=O)c2cc3ccccc3oc2=O)c2ccccc21 is above or exactly 40%.
rule met

Kindly determine if growth recorded for O=C(CSc1nnc(-c2ccc(-c3nc4ccccc4[nH]3)cc2)o1)Nc1ccc(Br)cc1 is above or exactly 40%.
rule not met

Kindly determine if growth recorded for COC(=O)c1cc(C(=O)C(C)(C)C)n2c3ccccc3c3ccccc3c12 is above or exactly 40%.
rule met

Kindly determine if growth recorded for COc1ccc2c(c1)C(Sc1ccc(Br)cc1)c1c(nc(N)c(C#N)c1N)O2 (configuration not stated) is above or exactly 40%.
rule met

Kindly determine if growth recorded for CN(C)CCOc1ccc(C(=O)C2[C@H](c3ccc(Cl)cc3)[C@@H](c3ccccc3)NC23C(=O)Nc2ccc(Cl)cc23)cc1 (some centres not stated) is above or exactly 40%.
rule not met

Kindly determine if growth recorded for COc1cc(/C=C/C(=O)c2cnn(-c3cc(=O)[nH]c4ccccc34)c2C)cc(OC)c1OC is above or exactly 40%.
rule not met

Kindly determine if growth recorded for N#CC1=C(c2ccco2)Nc2c(c(-c3ccccc3)nn2-c2ccccc2)C12C(=O)Nc1ccc(Cl)cc12 (configuration not stated) is above or exactly 40%.
rule met

Kindly determine if growth recorded for CCOc1ccccc1[C@H]1C(C(=O)c2ccc(Cl)cc2)C2(N[C@@H]1c1ccccc1)C(=O)Nc1ccccc12 (some centres not stated) is above or exactly 40%.
rule not met

Kindly determine if growth recorded for C[C@H](NC(=O)c1ccc2c(-c3ccc(C(F)(F)F)cc3)cccc2c1)c1ccccn1 is above or exactly 40%.
rule met

Kindly determine if growth recorded for C#CCN(C)CCCOc1ccc(N(CC)C(=O)c2cc(C(C)C)c(O)cc2O)cc1Cl is above or exactly 40%.
rule not met

Kindly determine if growth recorded for CCN(C(=O)CN1C(=O)/C(=C/c2ccco2)SC1=S)C1CCS(=O)(=O)C1 (configuration not stated) is above or exactly 40%.
rule met

Numbers sourced from PubChem BioAssay (NCI).
